# METHOD_NOTES: chemical genetic growth profiling, strain panel (AID 1159580);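 further: tested at 20 µM; growth read once vehicle control cultures reached saturation at 30 °C; 1 = growth at the plate median or of vehicle wells; lower values mean less growth of the strain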
# TEST_CONDITIONS: S. cerevisiae deletion strains, growth OD, locus YNL153C, strain GIM3, stronger effect = lower value
The campaign covered roughly 5,500 compounds. About 2,000 (36%) were called active. Not shown: some 18% with an inconclusive outcome. The list shows a part of the results.
MEASURED_PROPERTY: normalized growth
Form field (numeric): enter value without unit.

Illustrative cases are given below, each with its answer.
INSERT INTO results (compound, measured_property, meas_value) VALUES
  ('Clc1ccc2ocnc2c1', 'normalized growth', 0.996),
  ('CC(C)(C)C1=CC(=O)C=C(C(C)(C)C)C1=O', 'normalized growth', 1.03),
  ('CCOC(=O)/C(C#N)=C/N=C(N/N=C\c1c(Cl)cccc1Cl)SC', 'normalized growth', 1.03),
  ('Cn1c2c(c3ccccc31)/C(=N\OC(=O)c1ccc(Cl)cc1Cl)CCC2', 'normalized growth', 1.04),
  ('CCCc1nn(C)c2c(=O)[nH]c(-c3cc(S(=O)(=O)N4CCN(C)CC4)ccc3OCC)nc12', 'normalized growth', 1.02);

Would you mind telling me what normalized growth value was observed for `Nc1nc(/C(=C/CC(=O)O)C(=O)N[C@@H]2C(=O)N3C(C(=O)O)=CCS[C@H]23)cs1` ? 0.995

Would you mind telling me what normalized growth value was observed for `Cc1ccc(S(=O)(=O)N2CCC(N)=N2)cc1` ? 1.02

Would you mind telling me what normalized growth value was observed for CC1CCCC(C)N1NC(=O)c1ccc(Cl)c(S(N)(=O)=O)c1 (stereo unspecified) ? 0.981

Would you mind telling me what normalized growth value was observed for `CCOC(=O)C1=C(O)C(=O)N(Cc2ccccc2)C1` ? 0.994

Would you mind telling me what normalized growth value was observed for Cc1ccc(OCC(O)C(C)NC(C)C)c2c1CCC2 (stereo unspecified) ? 1

Would you mind telling me what normalized growth value was observed for C[C@@H]1CC[C@@]23CCC4(C)[C@@](C=CC5[C@@]6(C)CCC(=O)C(C)(C)C6CC[C@]54C)(OC2=O)C3[C@H]1C (stereo partly specified) ? 1.03

----------
normalized growth values for the molecules below.
# METHOD_NOTES: chemical genetic growth profiling, strain panel (AID 1159580);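 further: tested at 20 µM; growth read once vehicle control cultures reached saturation at 30 °C; 1 = growth at the plate median or of vehicle wells; lower values mean less growth of the strain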
# TEST_CONDITIONS: S. cerevisiae deletion strains, growth OD, locus YJL154C, strain vps35, stronger effect = lower value
Screen size: about 5,500 compounds; about 2,000 (36%) were called active. About 18% were inconclusive and are not listed. Some of the results follow.
Form field (numeric): enter value without unit.

INSERT INTO measurements (molecule, meas_value) VALUES
  ('COc1cc(C(=O)N2CCOCC2)cc(OC)c1OC', 0.974),
  ('C[C@@H]1CC[C@@]23CCC4(C)[C@@](C=CC5[C@@]6(C)CC[C@H](O)C(C)(C)C6CC[C@]54C)(OC2=O)C3[C@H]1C (some centres undefined)', 1);

Would you mind telling me what normalized growth value was observed for CC1(C)C(=O)CC[C@@]2(C)C1C[C@@H](O)[C@@]1(C)C3=CC(=O)O[C@@H](c4ccoc4)[C@]3(C)CCC21 (some centres undefined) ? 1.02

Would you mind telling me what normalized growth value was observed for `COc1ccccc1N1CCN(CCCNc2cc(=O)n(C)c(=O)n2C)CC1` ? 1.02

Would you mind telling me what normalized growth value was observed for `NC(=O)c1ccccc1O` ? 0.965

Would you mind telling me what normalized growth value was observed for `CC[C@@]1(O)C(=O)OCc2c1cc1n(c2=O)Cc2cc3cc(O)ccc3nc2-1` ? 1
